# Tested on: Wild type
# assay overview: S. aureus survival, RN4220 and DeltatarO strains – OD600, teichoic acid synthesis inhibitors, primary screen (AID 463173)
# protocol conditions: S. aureus RN4220 wild type/DeltatarO growth, OD600, 18 h, active compounds read low, screened at 18.75 µg/mL (by protocol)
The whole screen tested about 52,000 compounds, of which about 1,700 (3.3%) were called active. This is one part of a sample in which actives are shown more often than they occur.
parameter: survival

{"compound": "Cc1oc(-c2ccccc2)nc1CSc1nnc(C)n2c1cc1sccc12", "survival": "83% (inactive)"}
{"compound": "CCOC(=O)c1cc(C)n(CC2CCC(C(=O)Nc3cccc(C(C)=O)c3)CC2)c1C (stereo unspecified)", "survival": "79% (inactive)"}
{"compound": "Cc1ccc(NC(=O)C2C3C=CC4(O3)C2C(=O)N(c2ccccc2F)C4C(=O)NC2CCCC2)cc1 (stereo unspecified)", "survival": "84% (inactive)"}
{"compound": "CCCn1c2ccccc2c2cnn(CC(=O)NC(C)CC)c(=O)c21 (stereo unspecified)", "survival": "64% (inactive)"}
{"compound": "CCN1CCc2c(sc(NC(=O)CSc3ccccc3)c2-c2nc3ccccc3s2)C1", "survival": "-6% (active)"}
{"compound": "CCOc1ccc(CNC(=O)CCS(=O)(=O)c2cc3c4c(c2)CCN4C(=O)CC3)cc1", "survival": "71% (inactive)"}

Challenge: Return survival for the following compound: CCSC(=C(C#N)C#N)c1cc2c([nH]1)CCCC2
Response given: 116% (inactive)

Challenge: Return survival for the following compound: CC(=O)N1c2ccccc2C(=O)C1N1CCN(c2cc(Cl)ccc2C)CC1 (stereo unspecified)
Response given: 138% (inactive)

Challenge: Return survival for the following compound: CCCn1c2ccccc2c2cnn(CC(=O)NCC3CCN(Cc4ccc(C)cc4)CC3)c(=O)c21
Response given: -1% (active)

Challenge: Return survival for the following compound: Cc1nc2nc(NCc3ccc(Br)cc3)[nH]n2c(=O)c1Cc1ccccc1
Response given: 63% (inactive)

Challenge: Return survival for the following compound: COc1ccc(OC)c(CNC(=O)Cc2ccc(NC(=O)N3CCSc4ncccc43)cc2)c1
Response given: 64% (inactive)

Challenge: Return survival for the following compound: CC1CCN(C(=O)CSc2n[nH]c(-c3ccc(F)cc3)n2)CC1
Response given: 76% (inactive)

Challenge: Return survival for the following compound: COc1ccccc1CNC(=O)Cn1ncc2c3ccccc3n(Cc3ccccc3C)c2c1=O
Response given: 85% (inactive)

Challenge: Return survival for the following compound: CCn1cnc2cc(NCc3ccc(N(C)C)cc3)ccc21
Response given: 94% (inactive)

###

# System: Wild type
# assay overview: S. aureus survival, RN4220 and DeltatarO strains – OD600, teichoic acid synthesis inhibitors, primary screen (AID 463173)
# protocol conditions: S. aureus RN4220 wild type/DeltatarO growth, OD600, 18 h, active compounds read low, screened at 18.75 µg/mL (by protocol)
Among all 52,000 compounds or so, about 1,700 (3.3%) were called active. For the sample, actives were picked, then their nearest neighbours and some compounds at random.
Reported values of survival for individual entries

// solved cases for survival follow
{"molecule": "CCc1ccccc1N(C)C(=O)c1cnc(N2CCOCC2)c2ccccc12", "survival": "65% (inactive)"}
{"molecule": "Cc1cc2nnc(SCc3ccc(F)cc3)n2c2ccccc12", "survival": "-2% (active)"}
{"molecule": "CCCN(CCC)C(=O)CSc1nnc2cc(C)c3ccccc3n12", "survival": "84% (inactive)"}
{"molecule": "CCCCN(CCCC)C(=O)c1cc2c(=O)n3cccc(C)c3nc2s1", "survival": "-2% (active)"}
{"molecule": "Cc1ccc2[nH]c(=O)c3cc(C(=O)N(C)c4ccc(Br)cc4)sc3c2c1", "survival": "81% (inactive)"}
{"molecule": "CCc1nn(CC(=O)NCc2cccc(OC)c2)c(=O)c2cc3cc(F)ccc3n12", "survival": "69% (inactive)"}

Challenge: Write survival of CCOC(=O)CC(NC(=O)Cn1nnc(-c2ccc(C(F)(F)F)cc2)n1)c1ccc(C)cc1 (stereo unspecified) ; system used: Wild type
Response given: 87% (inactive)

Challenge: Write survival of CCCCc1nn2c(=O)cc(COC(=O)C3CCCCC3)nc2s1 ; system used: Wild type
Response given: 70% (inactive)

Challenge: Write survival of CN(C1CCCCC1)S(=O)(=O)Cc1ccccc1 ; system used: Wild type
Response given: 94% (inactive)

Challenge: Write survival of O=C(CSc1nc(-c2ccccc2)no1)N1CCN(c2ccc(F)cc2)CC1 ; system used: Wild type
Response given: 91% (inactive)

Challenge: Write survival of CCCN(CCC)C(=O)c1cc2c(=O)n3cccc(C)c3nc2s1 ; system used: Wild type
Response given: 80% (inactive)
